Recorded IC50 values for a group of compounds are listed next.
Test system: MDA-MB-468 cells
Experimental details: CellTiter-Glo in vitro cell proliferation assay, Example 8
Assay type: cell-based, Human
Reported conditions: MDA-MB-468, TNBC; read-out: Mean IC50
Record the value in µM, omitting the unit from your answer.

Below: 3 compounds and their reported IC50.
| Compound | Target system | Observable | Endpoint unit | Measured number |
| --- | --- | --- | --- | --- |
| C=C(C)C1CC=C(C(CC2=NCCc3c2[nH]c2cc(OC)ccc32)CC2=NCCc3c2[nH]c2cc(OC)ccc32)CC1 (stereo not shown) | MDA-MB-468 cells | IC50 | µM | 8.43 |
| COc1ccc2c3c([nH]c2c1)C(CC(CC1=NCCc2c1[nH]c1cc(OC)ccc21)c1cc(F)c(F)cc1F)=NCC3 | MDA-MB-468 cells | IC50 | µM | 6.54 |
| COc1ccc2c3c([nH]c2c1)C(CC(CC1=NCCc2c1[nH]c1cc(OC)ccc21)C1CCCCC1)=NCC3 | MDA-MB-468 cells | IC50 | µM | 7.46 |

Ask | Report IC50 for COc1ccc2c3c([nH]c2c1)C(CC(CC1=NCCc2c1[nH]c1cc(OC)ccc21)c1ccc(F)c(Oc2ccccc2)c1)=NCC3 tested on MDA-MB-468 cells.
Reply | 48.9

Ask | Report IC50 for COc1ccc2c3c([nH]c2c1)C(CC(CC1=NCCc2c1[nH]c1cc(OC)ccc21)c1ccc(OC)c(O)c1I)=NCC3 tested on MDA-MB-468 cells.
Reply | 16.9

Ask | Report IC50 for COc1ccc2c3c([nH]c2c1)C(CC(CC1=NCCc2c1[nH]c1cc(OC)ccc21)c1ccc(OC)c(OC)c1)=NCC3 tested on MDA-MB-468 cells.
Reply | 6.27

Ask | Report IC50 for COc1ccc2c3c([nH]c2c1)C(CC(CC1=NCCc2c1[nH]c1cc(OC)ccc21)c1ccc(OC)c(Oc2ccccc2)c1)=NCC3 tested on MDA-MB-468 cells.
Reply | 11.4

Ask | Report IC50 for COc1ccc2c3c([nH]c2c1)C(CC(CC1=NCCc2c1[nH]c1cc(OC)ccc21)c1cc(Br)c(O)c(OC)c1)=NCC3 tested on MDA-MB-468 cells.
Reply | 11.6

Ask | Report IC50 for COc1ccc2c3c([nH]c2c1)C(CC(CC1=NCCc2c1[nH]c1cc(OC)ccc21)c1cc(OC)c(O)c([N+](=O)[O-])c1)=NCC3 tested on MDA-MB-468 cells.
Reply | 14.7

* * *

Tested on: A2780 cells
Experimental details: CellTiter-Glo in vitro cell proliferation assay, Example 8
Assay type: cell-based, Human
Reported conditions: A2780, Ovarian; read-out: Mean IC50
Recorded pIC50 values for a group of molecules are listed next.
Scale explanation: pIC50 corresponds to minus log10 of a concentration expressed in moles per litre.

| Smiles representation | Measured number |
| --- | --- |
| COc1ccc2c3c([nH]c2c1)C(CC(CC1=NCCc2c1[nH]c1cc(OC)ccc21)c1cc(Cl)c(O)c(OC)c1)=NCC3 | 4.45 |
| COc1ccc2c3c([nH]c2c1)C(CC(CC1=NCCc2c1[nH]c1cc(OC)ccc21)c1ccc(F)c(Oc2ccccc2)c1)=NCC3 | 4.66 |

Ask | Which value of pIC50 has been reported for COc1ccc2c3c([nH]c2c1)C(CC(CC1=NCCc2c1[nH]c1cc(OC)ccc21)c1ccc(OC)c(OC)c1)=NCC3 in the records?
Reply | 4.94

Ask | Which value of pIC50 has been reported for CCOc1cc(C(CC2=NCCc3c2[nH]c2cc(OC)ccc32)CC2=NCCc3c2[nH]c2cc(OC)ccc32)ccc1O in the records?
Reply | 4.77

* * *

Test system: KMM-1 cells
Experimental details: CellTiter-Glo in vitro cell proliferation assay, Example 8
Format: cell-based, Human
Reported conditions: KMM-1, HMCL-A; read-out: Mean IC50
Recorded pIC50 values for a group of molecules are listed next.
Scale explanation: pIC50 corresponds to minus log10 of a concentration expressed in moles per litre.

| Smiles representation | pIC50 |
| --- | --- |
| COc1ccc2c3c([nH]c2c1)C(CC(CC1=NCCc2c1[nH]c1cc(OC)ccc21)c1cccc(-c2ccccc2)c1)=NCC3 | 4.47 |
| CCOc1cc(C(CC2=NCCc3c2[nH]c2cc(OC)ccc32)CC2=NCCc3c2[nH]c2cc(OC)ccc32)ccc1O | 5.03 |
| COc1ccc2c3c([nH]c2c1)C(CC(CC1=NCCc2c1[nH]c1cc(OC)ccc21)c1ccccc1OC)=NCC3 | 5.38 |
| COc1ccc2c3c([nH]c2c1)C(CC(CC1=NCCc2c1[nH]c1cc(OC)ccc21)c1cc(F)cc(F)c1)=NCC3 | 5.21 |
| COc1ccc2c3c([nH]c2c1)C(CC(CC1=NCCc2c1[nH]c1cc(OC)ccc21)c1cccc(F)c1)=NCC3 | 5.44 |

Ask | Which value of pIC50 has been reported for COc1ccc2c3c([nH]c2c1)C(CC(CC1=NCCc2c1[nH]c1cc(OC)ccc21)c1ccc(OC)c(Oc2ccccc2)c1)=NCC3 in the records?
Reply | 4.96

Ask | Which value of pIC50 has been reported for COc1ccc2c3c([nH]c2c1)C(CC(CC1=NCCc2c1[nH]c1cc(OC)ccc21)c1ccc(F)cc1)=NCC3 in the records?
Reply | 5.19

* * *

System: A2780 cells
Experimental details: CellTiter-Glo in vitro cell proliferation assay, Example 8
Assay type: cell-based, Human
Reported conditions: A2780, Ovarian; read-out: Mean IC50
Please assign Not met whenever IC50 is at or above 8 µM, and Met whenever it is below.

Answered examples (5):
| Smiles representation | Class assignment |
| --- | --- |
| COc1ccc2c3c([nH]c2c1)C(CC(CC1=NCCc2c1[nH]c1cc(OC)ccc21)c1cc(F)c(F)cc1F)=NCC3 | Met |
| COc1ccc2c3c([nH]c2c1)C(CC(CC1=NCCc2c1[nH]c1cc(OC)ccc21)c1ccccc1OC)=NCC3 | Met |
| COc1cccc(C(CC2=NCCc3c2[nH]c2cc(OC)ccc32)CC2=NCCc3c2[nH]c2cc(OC)ccc32)c1 | Not met |
| COc1ccc2c3c([nH]c2c1)C(CC(CC1=NCCc2c1[nH]c1cc(OC)ccc21)c1ccc(OC)c(Oc2ccccc2)c1)=NCC3 | Not met |
| COc1ccc2c3c([nH]c2c1)C(CC(CC1=NCCc2c1[nH]c1cc(OC)ccc21)c1cc(O)c(OC)c(OC)c1)=NCC3 | Not met |

// switching to the query compound
Ask | Dear colleague, could you confirm whether IC50 of COc1ccc2c3c([nH]c2c1)C(CC(CC1=NCCc2c1[nH]c1cc(OC)ccc21)c1ccc(F)cc1)=NCC3 falls below 8 µM? Thanks.
Reply | Met

* * *

Tested on: H1975 (EGFR mut) cells
Experimental details: CellTiter-Glo in vitro cell proliferation assay, Example 8
Format: cell-based, Human
Reported conditions: NSCLC, read-out: Mean IC50
Recorded pIC50 values for a group of compounds are listed next.
Scale explanation: pIC50 corresponds to minus log10 of a concentration expressed in moles per litre.

| Compound | pIC50 |
| --- | --- |
| COc1ccc2c3c([nH]c2c1)C(CC(CC1=NCCc2c1[nH]c1cc(OC)ccc21)C1CCCCC1)=NCC3 [compound 30] | 4.94 |
| COc1ccc2c3c([nH]c2c1)C(CC(CC1=NCCc2c1[nH]c1cc(OC)ccc21)c1cccc(-c2ccccc2)c1)=NCC3 [compound 18] | 4.23 |
| COc1ccc2c3c([nH]c2c1)C(CC(CC1=NCCc2c1[nH]c1cc(OC)ccc21)c1ccc(C(C)C)cc1)=NCC3 [compound 29] | 4.87 |

Query compound follows.
Ask | Which value of pIC50 has been reported for COc1ccc2c3c([nH]c2c1)C(CC(CC1=NCCc2c1[nH]c1cc(OC)ccc21)c1cc(Br)c(O)c(OC)c1)=NCC3 [compound 12] in the records?
Reply | 4.89

* * *

Test system: MDA-MB-231 cells
Experimental details: CellTiter-Glo in vitro cell proliferation assay, Example 8
Type: cell-based, Human
Reported conditions: Homo sapiens; MDA-MB-231, TNBC; read-out: Mean IC50
Observable: pIC50
Scale explanation: pIC50 corresponds to minus log10 of a concentration expressed in moles per litre.

Ask | Which value of pIC50 has been reported for COc1ccc2c3c([nH]c2c1)C(CC(CC1=NCCc2c1[nH]c1cc(OC)ccc21)c1c(F)c(F)c(F)c(F)c1F)=NCC3 [compound 24] in the records?
Reply | 4.68

* * *

System: A2780 cells
Experimental details: CellTiter-Glo in vitro cell proliferation assay, Example 8
Assay type: cell-based, Human
Reported conditions: A2780, Ovarian; read-out: Mean IC50
pIC50: −log10 of the molar value.
Classification field: y = pIC50 at or over 5; n = pIC50 under 5.

| Compound | Class assignment |
| --- | --- |
| COc1ccc2c3c([nH]c2c1)C(CC(CC1=NCCc2c1[nH]c1cc(OC)ccc21)c1cccc(F)c1)=NCC3 [compound 20] | y |
| COc1ccc2c3c([nH]c2c1)C(CC(CC1=NCCc2c1[nH]c1cc(OC)ccc21)c1ccc(OC)c(O)c1)=NCC3 [compound 7] | n |
| COc1ccc2c3c([nH]c2c1)C(CC(CC1=NCCc2c1[nH]c1cc(OC)ccc21)C1CCCCC1)=NCC3 [compound 30] | y |
| COc1ccc2c3c([nH]c2c1)C(CC(CC1=NCCc2c1[nH]c1cc(OC)ccc21)c1cc(Br)c(O)c(OC)c1)=NCC3 [compound 12] | n |

Ask | Decide: is the reported value of pIC50 for COc1ccc2c3c([nH]c2c1)C(CC(CC1=NCCc2c1[nH]c1cc(OC)ccc21)c1cc(OC)c(O)c([N+](=O)[O-])c1)=NCC3 [compound 5] equal to or greater than 5?
Reply | n

Where do these numbers come from? They come from patent US12129265B2.
